Measured Human Primary Hepatocyte Editing % 2500, listed per entry for reference.
- System: PCSK9 gene
- measurement_notes: PCSK9 gRNA/SpCas9 editing in primary human hepatocytes (Tables 2, 4)
- Assay type: cell-based
- test_context: 2500 ng/RNA/mL; SpCas9 mRNA MS002 1:1 by weight
In the oligonucleotide strings, read from the 5' end, every base follows the letter of its sugar. An asterisk marks phosphorothioate; unmarked linkages are phosphodiester. Other units and linkages are bracketed, terminal groups are in braces. A string of capitals states the bases alone. m = 2'-O-methyl; r = 2'-OH (RNA)
Note to self: number, then unit, no commentary.

molecule	property_label	experimental_result
GA194: PCSK9 gRNA; protospacer GTCGACATGGGGCAACTTCA (SEQ ID NO: 188) (nucleic acid, sugars from the 5' end m3 r94 m3, linkages s3 o93 s3 (s phosphorothioate, o phosphodiester), T or U not given here) guide: GUCGACAUGGGGCAACUUCAGUUUUAGAGCUAGAAAUAGCAAGUUAAAAUAAGGCUAGUCCGUUAUCAACUUGAAAAAGUGGCACCGAGUCGGUGCUUUU	Human Primary Hepatocyte Editing % 2500	32.97%

Qu. Tell me the measured Human Primary Hepatocyte Editing % 2500 of GA165: PCSK9 gRNA; protospacer CCGTCAGCTCCAGGCGGTCC (SEQ ID NO: 159) (nucleic acid, sugars from the 5' end m3 r94 m3, linkages s3 o93 s3 (s phosphorothioate, o phosphodiester), T or U not given here) guide: CCGUCAGCUCCAGGCGGUCCGUUUUAGAGCUAGAAAUAGCAAGUUAAAAUAAGGCUAGUCCGUUAUCAACUUGAAAAAGUGGCACCGAGUCGGUGCUUUU , please.
Ans. 40.27%

Qu. Item GA204: PCSK9 gRNA; protospacer CACTCTGTATGCTGGTGTCT (SEQ ID NO: 198) (nucleic acid, sugars from the 5' end m3 r94 m3, linkages s3 o93 s3 (s phosphorothioate, o phosphodiester), T or U not given here) guide: CACUCUGUAUGCUGGUGUCUGUUUUAGAGCUAGAAAUAGCAAGUUAAAAUAAGGCUAGUCCGUUAUCAACUUGAAAAAGUGGCACCGAGUCGGUGCUUUU has what recorded Human Primary Hepatocyte Editing % 2500?
Ans. 24.98%

Qu. Can you look up the measured Human Primary Hepatocyte Editing % 2500 of GA226: PCSK9 gRNA; protospacer GGCTTTTCCGAATAAACTCC (SEQ ID NO: 220) (nucleic acid, sugars from the 5' end m3 r94 m3, linkages s3 o93 s3 (s phosphorothioate, o phosphodiester), T or U not given here) guide: GGCUUUUCCGAAUAAACUCCGUUUUAGAGCUAGAAAUAGCAAGUUAAAAUAAGGCUAGUCCGUUAUCAACUUGAAAAAGUGGCACCGAGUCGGUGCUUUU for me?
Ans. 7.61%

Qu. Find the recorded Human Primary Hepatocyte Editing % 2500 belonging to GA213: PCSK9 gRNA; protospacer CGTGCTCAACTGCCAAGGGA (SEQ ID NO: 207) (nucleic acid, sugars from the 5' end m3 r94 m3, linkages s3 o93 s3 (s phosphorothioate, o phosphodiester), T or U not given here) guide: CGUGCUCAACUGCCAAGGGAGUUUUAGAGCUAGAAAUAGCAAGUUAAAAUAAGGCUAGUCCGUUAUCAACUUGAAAAAGUGGCACCGAGUCGGUGCUUUU and report it.
Ans. 24.28%

Qu. Reported Human Primary Hepatocyte Editing % 2500, molecule GA159: PCSK9 gRNA; protospacer GCGTTCCGAGGAGGACGGCC (SEQ ID NO: 153) (nucleic acid) guide: mG*mC*mG*rUrUrCrCrGrArGrGrArGrGrArCrGrGrCrCrGrUrUrUrUrArGrArGrCrUrArGrArArArUrArGrCrArArGrUrUrArArArArUrArArGrGrCrUrArGrUrCrCrGrUrUrArUrCrArArCrUrUrGrArArArArArGrUrGrGrCrArCrCrGrArGrUrCrGrGrUrGrCrU*mU*mU*mU : ____
Ans. 14.68%
